src = patent US11753373B2

Give measured Liver Microsomal Stability (ER) SD rat for each item. Keep answers brief.
Assay type: in vitro ADME
measurement-context: extraction ratio, compound at 1 uM, SD rat liver microsomes 0.5 mg/mL
The answer should be written as a number, with no unit following it.

Query: Field request: Liver Microsomal Stability (ER) SD rat | item: `CC(C)C[C@H](NC(=O)c1cc2c(F)cccc2[nH]1)C(=O)N[C@@H](C[C@@H]1CCNC1=O)C(=O)CCl`
Response: 0.77

Query: Moving on to `COc1cccc2[nH]c(C(=O)N[C@@H](CC(C)C)C(=O)N[C@H](C#N)C[C@@H]3CCNC3=O)cc12`
Response: 0.22

Query: Moving on to `CC(C)C[C@H](NC(=O)c1cc2ccccc2[nH]1)C(=O)N1C[C@H]2[C@@H]([C@H]1C(=O)N[C@H](C(=O)CCl)C(C)C)C2(C)C`
Response: 0.79

Query: Moving on to `CC(C)C[C@H](NC(=O)c1cc2ccccc2[nH]1)C(=O)N1C[C@H]2[C@@H]([C@H]1C(=O)N[C@@H](C[C@@H]1CCNC1=O)C(=O)CO)C2(C)C`
Response: 0.07

Query: Moving on to `COc1cccc2[nH]c(C(=O)N[C@@H](CC(C)C)C(=O)N[C@@H](C[C@@H]3CCNC3=O)C(=O)CCl)cc12`
Response: 0.74
